# system under test: human CXCR4 (human, UniProt P61073 1-352)
# Sequence (P61073 whole entry): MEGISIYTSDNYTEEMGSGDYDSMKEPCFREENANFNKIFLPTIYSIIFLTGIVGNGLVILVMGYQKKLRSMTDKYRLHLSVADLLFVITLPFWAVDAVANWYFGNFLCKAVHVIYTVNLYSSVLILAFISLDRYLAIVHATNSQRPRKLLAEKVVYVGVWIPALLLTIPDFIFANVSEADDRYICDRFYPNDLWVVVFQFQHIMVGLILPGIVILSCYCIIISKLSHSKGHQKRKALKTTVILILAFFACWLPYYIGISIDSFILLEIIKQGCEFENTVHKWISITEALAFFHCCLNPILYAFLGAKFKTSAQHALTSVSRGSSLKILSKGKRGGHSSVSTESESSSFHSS
# experiment notes: cell-based or functional assay
Bridges are numbered along the chain shown (N, C = ends). [ ]: non-standard residue; d: D form. 2Nal = N[C@@H](Cc1ccc2ccccc2c1)C(=O)O; 4Pal = N[C@@H](Cc1ccncc1)C(=O)O; Cit = NC(=O)NCCC[C@H](N)C(=O)O
quantity name: IC50 (nM) Ca2+ assay (method 2)
// return numeric value only (unit: nM, not printed)

Supply reported IC50 (nM) Ca2+ assay (method 2) belonging to this binder: cyclo(RR[2Nal]CY[Cit]KCYKGYCYR[Cit]CRG[dP]) (disulfide 8-13, 4-17) [Example 154]
9.3

Please give the documented IC50 (nM) Ca2+ assay (method 2) of cyclo(YR[Cit]CRG[dP]RR[2Nal]CYNK[dP]P) (disulfide 4-11; SMILES N=C(N)NCCC[C@@H]1NC(=O)[C@@H]2CSSC[C@H](NC(=O)[C@H](Cc3ccc4ccccc4c3)NC(=O)[C@H](CCCNC(=N)N)NC(=O)[C@H](CCCNC(=N)N)NC(=O)[C@H]3CCCN3C(=O)CNC1=O)C(=O)N[C@@H](Cc1ccc(O)cc1)C(=O)N[C@@H](CC(N)=O)C(=O)N[C@@H](CCCCN)C(=O)N1CCC[C@@H]1C(=O)N1CCC[C@H]1C(=O)N[C@@H](Cc1ccc(O)cc1)C(=O)N[C@@H](CCCNC(=N)N)C(=O)N[C@@H](CCCNC(N)=O)C(=O)N2) [Example 77]
7

Further cases:
Please give the documented IC50 (nM) Ca2+ assay (method 2) of cyclo(YR[Cit]CRG[dP]WR[2Nal]CYQK[dP]P) (disulfide 4-11; SMILES N=C(N)NCCC[C@@H]1NC(=O)[C@@H]2CSSC[C@H](NC(=O)[C@H](Cc3ccc4ccccc4c3)NC(=O)[C@H](CCCNC(=N)N)NC(=O)[C@H](Cc3c[nH]c4ccccc34)NC(=O)[C@H]3CCCN3C(=O)CNC1=O)C(=O)N[C@@H](Cc1ccc(O)cc1)C(=O)N[C@@H](CCC(N)=O)C(=O)N[C@@H](CCCCN)C(=O)N1CCC[C@@H]1C(=O)N1CCC[C@H]1C(=O)N[C@@H](Cc1ccc(O)cc1)C(=O)N[C@@H](CCCNC(=N)N)C(=O)N[C@@H](CCCNC(N)=O)C(=O)N2) [Example 55]
6.3

State, in one line, measured IC50 (nM) Ca2+ assay (method 2) of cyclo(YRMCRG[dP]RR[2Nal]CYQK[dP]P) (disulfide 4-11; SMILES CSCC[C@@H]1NC(=O)[C@H](CCCNC(=N)N)NC(=O)[C@H](Cc2ccc(O)cc2)NC(=O)[C@@H]2CCCN2C(=O)[C@H]2CCCN2C(=O)[C@H](CCCCN)NC(=O)[C@H](CCC(N)=O)NC(=O)[C@H](Cc2ccc(O)cc2)NC(=O)[C@@H]2CSSC[C@H](NC1=O)C(=O)N[C@@H](CCCNC(=N)N)C(=O)NCC(=O)N1CCC[C@@H]1C(=O)N[C@@H](CCCNC(=N)N)C(=O)N[C@@H](CCCNC(=N)N)C(=O)N[C@@H](Cc1ccc3ccccc3c1)C(=O)N2) [Example 100]
7

State its IC50 (nM) Ca2+ assay (method 2): cyclo(YRTCRG[dP][4Pal]RWCYQK[dP]P) (disulfide 4-11; SMILES C[C@@H](O)[C@@H]1NC(=O)[C@H](CCCNC(=N)N)NC(=O)[C@H](Cc2ccc(O)cc2)NC(=O)[C@@H]2CCCN2C(=O)[C@H]2CCCN2C(=O)[C@H](CCCCN)NC(=O)[C@H](CCC(N)=O)NC(=O)[C@H](Cc2ccc(O)cc2)NC(=O)[C@@H]2CSSC[C@H](NC1=O)C(=O)N[C@@H](CCCNC(=N)N)C(=O)NCC(=O)N1CCC[C@@H]1C(=O)N[C@@H](Cc1ccncc1)C(=O)N[C@@H](CCCNC(=N)N)C(=O)N[C@@H](Cc1c[nH]c3ccccc13)C(=O)N2) [Example 118]
7.6

Please report IC50 (nM) Ca2+ assay (method 2) for the following binder: cyclo(ER[Cit]CRG[dP]RR[2Nal]CYQK[dP]P) (disulfide 4-11; SMILES N=C(N)NCCC[C@@H]1NC(=O)[C@@H]2CSSC[C@H](NC(=O)[C@H](Cc3ccc4ccccc4c3)NC(=O)[C@H](CCCNC(=N)N)NC(=O)[C@H](CCCNC(=N)N)NC(=O)[C@H]3CCCN3C(=O)CNC1=O)C(=O)N[C@@H](Cc1ccc(O)cc1)C(=O)N[C@@H](CCC(N)=O)C(=O)N[C@@H](CCCCN)C(=O)N1CCC[C@@H]1C(=O)N1CCC[C@H]1C(=O)N[C@@H](CCC(=O)O)C(=O)N[C@@H](CCCNC(=N)N)C(=O)N[C@@H](CCCNC(N)=O)C(=O)N2) [Example 68]
1.1

Tell me IC50 (nM) Ca2+ assay (method 2) reported for cyclo(YR[Cit]CRG[dP]RRWCY[Cit]K[dP]P) (disulfide 4-11; SMILES N=C(N)NCCC[C@@H]1NC(=O)[C@@H]2CSSC[C@H](NC(=O)[C@H](Cc3c[nH]c4ccccc34)NC(=O)[C@H](CCCNC(=N)N)NC(=O)[C@H](CCCNC(=N)N)NC(=O)[C@H]3CCCN3C(=O)CNC1=O)C(=O)N[C@@H](Cc1ccc(O)cc1)C(=O)N[C@@H](CCCNC(N)=O)C(=O)N[C@@H](CCCCN)C(=O)N1CCC[C@@H]1C(=O)N1CCC[C@H]1C(=O)N[C@@H](Cc1ccc(O)cc1)C(=O)N[C@@H](CCCNC(=N)N)C(=O)N[C@@H](CCCNC(N)=O)C(=O)N2) [Example 123]
10

Query IC50 (nM) Ca2+ assay (method 2) for cyclo(YR[Cit]CRG[dP]RR[2Nal]CY[Cit]E[dP]P) (disulfide 4-11; SMILES N=C(N)NCCC[C@@H]1NC(=O)[C@@H]2CSSC[C@H](NC(=O)[C@H](Cc3ccc4ccccc4c3)NC(=O)[C@H](CCCNC(=N)N)NC(=O)[C@H](CCCNC(=N)N)NC(=O)[C@H]3CCCN3C(=O)CNC1=O)C(=O)N[C@@H](Cc1ccc(O)cc1)C(=O)N[C@@H](CCCNC(N)=O)C(=O)N[C@@H](CCC(=O)O)C(=O)N1CCC[C@@H]1C(=O)N1CCC[C@H]1C(=O)N[C@@H](Cc1ccc(O)cc1)C(=O)N[C@@H](CCCNC(=N)N)C(=O)N[C@@H](CCCNC(N)=O)C(=O)N2) [Example 103]
18.3
